assay: Substrate specificities of KAZ mutants (ZZ-fused, crude enzyme), 6h-f-CTZ; format: biochemical; conditions: 1 μg substrate, integrated for 60 seconds
Relative Luminescence Activity 6h-f-CTZ Int.: recorded values
Keep it simple and answer with nothing but the number.

Return Relative Luminescence Activity 6h-f-CTZ Int. (reported value) for this molecule: KAZ-A54I: KAZ with single amino acid substitution A54I, SEQ ID NO: 6 (protein) FTLADFVGDWQQTAGYNQDQVLEQGGLSSLFQALGVSVTPIQKVVLSGENGLKIDIHVIIPYEGLSGFQMGLIEMIFKVVYPVDDHHFKIILHYGTLVIDGVTPNMIDYFGRPYPGIAVFDGKQITVTGTLWNGNKIYDERLINPDGSLLFRVTINGVTGWRLCENILA 2.0

Return Relative Luminescence Activity 6h-f-CTZ Int. (reported value) for this molecule: KAZ: wild 19 kDa catalytic protein of Oplophorus luciferase (19kOLase), amino acid sequence SEQ ID NO: 2 (protein, listed as Oplophorus gracilirostris) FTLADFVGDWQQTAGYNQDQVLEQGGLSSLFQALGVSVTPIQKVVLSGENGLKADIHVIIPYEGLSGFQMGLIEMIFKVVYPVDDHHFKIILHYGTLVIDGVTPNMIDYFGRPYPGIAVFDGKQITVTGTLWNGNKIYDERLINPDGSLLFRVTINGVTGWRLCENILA 0.7

Return Relative Luminescence Activity 6h-f-CTZ Int. (reported value) for this molecule: KAZ-V44I-A54I: KAZ mutant with two amino acid substitutions V44I and A54I, SEQ ID NO: 10 (protein) FTLADFVGDWQQTAGYNQDQVLEQGGLSSLFQALGVSVTPIQKIVLSGENGLKIDIHVIIPYEGLSGFQMGLIEMIFKVVYPVDDHHFKIILHYGTLVIDGVTPNMIDYFGRPYPGIAVFDGKQITVTGTLWNGNKIYDERLINPDGSLLFRVTINGVTGWRLCENILA 4.0

Return Relative Luminescence Activity 6h-f-CTZ Int. (reported value) for this molecule: KAZ-V44I-Y138I: KAZ mutant with two amino acid substitutions V44I and Y138I, SEQ ID NO: 12 (protein) FTLADFVGDWQQTAGYNQDQVLEQGGLSSLFQALGVSVTPIQKIVLSGENGLKADIHVIIPYEGLSGFQMGLIEMIFKVVYPVDDHHFKIILHYGTLVIDGVTPNMIDYFGRPYPGIAVFDGKQITVTGTLWNGNKIIDERLINPDGSLLFRVTINGVTGWRLCENILA 4.2
